- measured.on: T1, human CD47ECD His tagged protein (human, UniProt Q08722 19-139, limits assumed)
- T1 construct: extracellular domain; also called HuCD47ECD 8xHis; monovalent CD47ECD His tagged protein
- assay.method.text: SPR (Biacore 3000); antibody captured on anti-human Fc chip, monovalent HuCD47ECD 8xHis injected; column Affinity (nM)
We begin with a simple list: items and their reported pKd.
// field semantics: pKd = negative decimal log of concentration (mol/L)

1) D41S2 mouse/human chimeric anti-human CD47 antibody (antibody, V domains shown, also called chimeric D41S2) VH: EVQLQQSVAELVRPGASVKLSCTPSGFNIKNTYIYWVRQRPEQGLEWIGRIDPANGNTKDAPKFQGKATMTADTSSNTAYLQLSSLTSEDTAIYYCARGYGSGFAYWGQGTLVTVSA VL: DIQMTQTTSSLSASLGDRVTISCRASQDISNHLNWYQQKPDGTVKLLIYYTSRLHSGVPSRFSGSGSGTDYSLTISNLEQEDIATYFCQQGSTLPFTFGSGTKLEIK :: 8.28
2) D36S4 mouse/human chimeric anti-human CD47 antibody (antibody, V domains shown, also called chimeric D36S4 antibody; D36S4 H/L) VH: EVKLEESGGGLVQPGGSMKLSCVASGFTFSRYWMNWVRQSPDKGLEWVAQIRLKSDNYETHYAESVKGRFTISRDDSKSSVYLQMNNLRAEDTGIYYCIEEGGYYVPFAYWGQGTLVTVSA VL: DIVVSQSPSSLAVSAGEKVTMSCKSSQSLFKSRTRKNYLAWYQQRPGQSPKLLIYWASIRESGVPDRFTGSGSGTEFTLTISSVQAEDLAVYYCKQSYYLLTFGAGTKLELK :: 9.15

Input: // pKd lookup, key: AB6.12, a humanized version of anti-CD47 antibody 2A1 from Celgene (antibody, from another filing, V domains shown) VH: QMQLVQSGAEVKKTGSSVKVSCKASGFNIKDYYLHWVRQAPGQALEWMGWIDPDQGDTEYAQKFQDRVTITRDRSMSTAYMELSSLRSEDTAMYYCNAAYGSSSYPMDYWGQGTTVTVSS VL: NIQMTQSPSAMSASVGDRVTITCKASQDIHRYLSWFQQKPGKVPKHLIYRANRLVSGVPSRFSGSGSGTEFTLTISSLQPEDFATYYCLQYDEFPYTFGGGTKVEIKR
Output: 9.10
